Target: HIV integrase (Human immunodeficiency virus type 1 group M subtype B, UniProt P12497, F1332H)
Construct: HIV integrase full length gene
Experiment: Determination of enzyme (HIV integrase) inhibitory activity (strand transfer, microtiter plate, absorbance at 450 nm)
Settings: recombinant HIV integrase (F185H) expressed in E. coli; donor DNA on streptavidin plate, digoxigenin target DNA; 37° C.
Cut-off 100 nM on IC50: below means TRUE, at or above means FALSE.

[in] Please indicate whether the reported IC50 of O=C(O)c1cn(CCO)c2cc(OCC3CCCCC3)c(Cc3cccc(Cl)c3F)cc2c1=O is strictly below 100 nM.
[out] TRUE

[in] Please indicate whether the reported IC50 of O=C(O)c1cn(CCO)c2ccc(Cc3cccc(Cl)c3Cl)cc2c1=O [Example 1-63] is strictly below 100 nM.
[out] TRUE

[in] Please indicate whether the reported IC50 of CCOc1ccccc1Cc1ccc2c(c1)c(=O)c(C(=O)O)cn2CCO is strictly below 100 nM.
[out] FALSE

[in] Please indicate whether the reported IC50 of NCCn1cc(C(=O)O)c(=O)c2cc(Cc3cccc(Cl)c3Cl)ccc21 is strictly below 100 nM.
[out] FALSE

[in] Please indicate whether the reported IC50 of CCOc1cc2c(cc1Cc1cccc(Cl)c1F)c(=O)c(C(=O)O)cn2[C@H](CO)C1CCCCC1 is strictly below 100 nM.
[out] TRUE

[in] Please indicate whether the reported IC50 of C[C@@H](CO)n1cc(C(=O)O)c(=O)c2cc(Cc3cccc(Cl)c3F)cc(N(C)C)c21 is strictly below 100 nM.
[out] TRUE

[in] Please indicate whether the reported IC50 of NS(=O)(=O)Cn1cc(C(=O)O)c(=O)c2cc(Cc3cccc(Cl)c3Cl)ccc21 is strictly below 100 nM.
[out] TRUE

---

Biological target: HIV integrase (Human immunodeficiency virus type 1 group M subtype B, UniProt P12497, F1332H)
Construct: HIV integrase full length gene
Assay: Determination of enzyme (HIV integrase) inhibitory activity (strand transfer, microtiter plate, absorbance at 450 nm)
Settings: recombinant HIV integrase (F185H) expressed in E. coli; donor DNA on streptavidin plate, digoxigenin target DNA; 37° C.
Value Type: IC50
Don't forget the unit after the number, please.

[in] Param item = CNS(=O)(=O)Cn1cc(C(=O)O)c(=O)c2cc(Cc3c(F)cccc3Cl)ccc21 [Example 1-76] ; retrieve measured IC50.
[out] 28 nM

[in] Param item = CCC[C@@H](CO)n1cc(C(=O)O)c(=O)c2cc(Cc3cccc(Cl)c3F)cc(OC(C)C)c21 [Example 4-47] ; retrieve measured IC50.
[out] 2.3 nM

[in] Param item = CC(=O)Nn1cc(C(=O)O)c(=O)c2cc(Cc3cccc(Cl)c3Cl)ccc21 [Example 2-3] ; retrieve measured IC50.
[out] 110 nM

[in] Param item = O=C(O)c1cn(CCO)c2cc(Cl)c(Cc3cccc(Cl)c3Cl)cc2c1=O [Example 3-21] ; retrieve measured IC50.
[out] 30 nM

[in] Param item = CC[C@H](C)[C@@H](CO)n1cc(C(=O)O)c(=O)c2cc(Cc3cccc(Cl)c3F)c(OC(C)C)cc21 [Example 4-39] ; retrieve measured IC50.
[out] 4.1 nM

[in] Param item = CSc1ccc(Cl)c(Cc2ccc3c(c2)c(=O)c(C(=O)O)cn3CCO)c1 [Example 1-92] ; retrieve measured IC50.
[out] 280 nM

[in] Param item = CN(C)/C=N/c1cc2c(cc1Cc1cccc(Cl)c1F)c(=O)c(C(=O)O)cn2CCO [Example 3-50] ; retrieve measured IC50.
[out] 18 nM

[in] Param item = Cc1ccc(Cl)c(Cc2ccc3c(c2)c(=O)c(C(=O)O)cn3CCO)c1 [Example 1-97] ; retrieve measured IC50.
[out] 130 nM

[in] Param item = CCOc1cc2c(cc1Cc1cccc(Cl)c1F)c(=O)c(C(=O)O)cn2[C@H](CO)[C@@H](C)CC [Example 4-28] ; retrieve measured IC50.
[out] 2.7 nM

[in] Param item = COc1cc(Cc2cccc(Cl)c2F)cc2c(=O)c(C(=O)O)cn([C@H](CO)C(C)C)c12 [Example 4-46] ; retrieve measured IC50.
[out] 5 nM

[in] Param item = O=C(O)c1cn(CCO)c2ccc(Cc3ccccc3Br)cc2c1=O [Example 1-80] ; retrieve measured IC50.
[out] 350 nM

[in] Param item = CCC[C@@H](CO)n1cc(C(=O)O)c(=O)c2cc(Cc3cccc(Cl)c3F)cc(OCC)c21 [Example 4-48] ; retrieve measured IC50.
[out] 3 nM

[in] Param item = CCC[C@@H](CO)n1cc(C(=O)O)c(=O)c2cc(Cc3cccc(Cl)c3F)c(OC(C)C)cc21 [Example 4-35] ; retrieve measured IC50.
[out] 4.3 nM

[in] Param item = O=C(O)c1cn(CCO)c2ccc(Cc3ccccc3OC(F)(F)F)cc2c1=O [Example 1-93] ; retrieve measured IC50.
[out] 370 nM

[in] Param item = CCOc1cc2c(cc1Cc1cccc(Cl)c1F)c(=O)c(C(=O)O)cn2[C@@H](C)CO [Example 3-61] ; retrieve measured IC50.
[out] 7.6 nM

[in] Param item = NS(=O)(=O)Cn1cc(C(=O)O)c(=O)c2cc(Cc3c(F)cccc3Cl)ccc21 [Example 1-75] ; retrieve measured IC50.
[out] 16 nM

[in] Param item = O=C(O)c1cn(CCO)c2ccc(Cc3cccc(Cl)c3)cc2c1=O [Example 1-31] ; retrieve measured IC50.
[out] 170 nM

Sourced from patent US8232401B2
